These entries and their values trace back to PubChem BioAssay.

system: F380Y/beta1; experiment: modulators of BK channel variants, profiling panel, selectivity assay, cell-based, U2OS BacMam, thallium flux, beta subunits (AID 1259406); conditions: at 30 µM;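 further: initial slope of Thallos dye fluorescence rise after thallium is added; log ratio against the mean of 0.3% DMSO vehicle wells on the same plate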
Numbered stars: 1 amine (or outer) side, 2 acyl side, 3 side chain; on linkers, the order of the positions; unused ones are H or OH. Bridge positions count the residues as written; N and C are the ends. Square brackets hold non-standard residues; d marks the D form. Peptide text beside a SMILES is read from it. I, II: the chains in the order shown. Actinocin(9to1) = Cc1c2oc3c(C)ccc(C(=O)[*:1])c3nc-2c(C(=O)[*:2])c(N)c1=O; NMeV = CN[CH](C(=O)O)C(C)C; Sar = CNCC(=O)O
PROPERTY_LABEL: log fold change Tl+ flux
Lab note: jot the number down without any unit.

In: Quick one: log fold change Tl+ flux of "O=c1c(O[C@@H]2O[C@H](CO)[C@@H](O)[C@H](O)[C@H]2O)c(-c2ccc(O)c(O)c2)oc2cc(O)cc(O)c12" ?
Out: 0.0645

In: Please look up its log fold change Tl+ flux: Cc1c2oc3c(C)ccc(C(=O)NC4C(=O)NC(C(C)C)C(=O)N5CCCC5C(=O)N(C)CC(=O)N(C)C(C(C)C)C(=O)OC4C)c3nc-2c(C(=O)NC2C(=O)NC(C(C)C)C(=O)N3CCCC3C(=O)N(C)CC(=O)N(C)C(C(C)C)C(=O)OC2C)c(N)c1=O (stereo not drawn) (I: TVP[Sar][NMeV] / II: TVP[Sar][NMeV]; ester I:1-I:C, II:1-II:C; linker I:N-II:N via Actinocin(9to1); configuration not given here)
Out: 0.0244

In: So what's the measured log fold change Tl+ flux for this one? "N=C(N)Cc1c(Cl)cccc1Cl"
Out: 0.00557

In: Look up log fold change Tl+ flux: "N#Cc1ccc(NCCc2ccccn2)c([N+](=O)[O-])c1"
Out: -0.0335

In: Look up log fold change Tl+ flux: "Cn1cnc2cccc(F)c2c1=N"
Out: 0.000586

In: Look up log fold change Tl+ flux for this compound: O=C(CC1SC(=NC2CC3C=CC2C3)NC1=O)Nc1ccccc1Cl (stereo not drawn)
Out: 0.0502

In: # get_value(readout='log fold change Tl+ flux', item= "CNCC[C@H](Oc1cccc2ccccc12)c1cccs1" )
Out: -0.085

In: I'd like to know its log fold change Tl+ flux. The compound in question is "Cc1nn(C)c(NCc2cccs2)c1[N+](=O)[O-]"
Out: 0.00245

In: # get_value(readout='log fold change Tl+ flux', item= "CN1c2ccsc2C(=O)C(=NNc2cccc(C(F)(F)F)c2)S1(=O)=O" )
Out: 0.00552

In: Consider the compound shown here: "CSC(NCc1cccnc1)=C(C#N)S(=O)(=O)c1ccc(Cl)cc1" What is its recorded log fold change Tl+ flux?
Out: 0.0532

In: What measured log fold change Tl+ flux goes with CS(=O)(=NS(=O)(=O)c1ccc(OC(F)(F)F)cc1)c1ccccc1 (stereo not drawn) ?
Out: -0.0162

In: What value of log fold change Tl+ flux has been recorded for this entry: "CC(=O)[C@@]1(O)CC[C@H]2[C@@H]3C[C@H](C)C4=CC(=O)CC[C@]4(C)[C@H]3CC[C@@]21C"
Out: 0.0476

In: Name the recorded log fold change Tl+ flux for "CCOC(=O)c1cc(CC)sc1NC(=O)C(Cl)(Cl)Cl" .
Out: 0.0314

In: Record request: log fold change Tl+ flux value, item "COc1cccc(N2CC(=O)N(NC(=O)NC3CCCCC3)CC2=O)c1"
Out: -0.0266

In: Entry under review: "CCc1nc2ccccc2nc1N1CCN(S(=O)(=O)c2ccc(Cl)cc2)CC1" . Reported log fold change Tl+ flux?
Out: -0.0118

In: Data request, read-out log fold change Tl+ flux, for CN(C)[C@@H]1C(=O)C(C(=O)NCN2CCCC2)=C(O)[C@@]2(O)C(=O)C3=C(O)c4c(O)cccc4[C@@](C)(O)C3CC12 (stereo partly drawn)
Out: -0.00765

In: # log fold change Tl+ flux lookup, item "COC(=O)c1sc(-c2ccc(Cl)cc2)cc1NC(=O)c1ccc2nsnc2c1"
Out: 0.0354

In: # get_value(readout='log fold change Tl+ flux', item= "Cc1ccc(S(N)(=O)=O)c(I)c1" )
Out: 0.0178
